Data credit: ChEMBL document CHEMBL1932960

# ASSAY TEXT: Clearance in rat at 0.5 mg/kg, iv
# Format: ADME, organism-based
# Set-up: dose 0.5 mg/kg, route intravenous
# CONDITION PARAMETERS: in vivo
READOUT NAME: clearance (L/h/kg)
Supply the numeric figure in L/h/kg, leaving out any unit text.

Below, each entry is followed by its recorded clearance result.
# COMPOUND, UNIT DESCRIPTOR, clearance
data = [
    ("O[C@@H]1Cc2ccccc2C12CCN(Cc1ccc3[nH]c4ccccc4c3c1)CC2", "L/h/kg", 8.7),
    ("CCn1c2ccccc2c2cc(CN3CCC4(CC3)c3ccccc3[C@H](NC(C)=O)[C@H]4O)ccc21 (racemic)", "L/h/kg", 2.2),
]

With those in mind, consider the next compound.
Query: // clearance lookup, key: CC(=O)N[C@@H]1CC2(CCN(Cc3ccc4[nH]c5ccccc5c4c3)CC2)c2ccccc21
Reply: 1.2

---

Measured IC50, listed per entry for reference.
# MEASURED ON: Melanin-concentrating hormone receptor 2 (Homo sapiens, UniProt Q969V1)
# Sequence (Q969V1 whole entry): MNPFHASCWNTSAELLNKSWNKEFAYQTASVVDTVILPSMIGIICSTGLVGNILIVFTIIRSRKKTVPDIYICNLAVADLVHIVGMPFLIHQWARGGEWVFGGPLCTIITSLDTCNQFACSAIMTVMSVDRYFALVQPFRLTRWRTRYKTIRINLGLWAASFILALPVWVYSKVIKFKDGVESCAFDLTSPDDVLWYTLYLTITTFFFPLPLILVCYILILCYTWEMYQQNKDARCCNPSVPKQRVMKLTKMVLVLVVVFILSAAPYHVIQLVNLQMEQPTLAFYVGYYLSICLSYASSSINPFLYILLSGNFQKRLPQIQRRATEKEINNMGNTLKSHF
# ASSAY TEXT: Antagonist activity at human MCHR2 receptor expressed in CHO cells assessed as inhibition of MCH-stimulated Ca2+ flux preincubated for 10 mins prior to MCH-stimulation by FLIPR assay
# Format: functional, cell-based
Supply the numeric figure in nM, leaving out any unit text.

# COMPOUND, EXPERIMENTAL VALUE
rows = [
    ("CC(=O)N[C@H]1c2ccccc2C2(CCN(Cc3ccc4[nH]c5ccccc5c4c3)CC2)[C@@H]1O (racemic)", 8),
    ("CC(=O)N[C@@H]1CC2(CCN(Cc3ccc4[nH]c5ccc(Br)cc5c4c3)CC2)c2ccccc21", 10),
    ("CN(C)C(=O)n1c2ccccc2c2cc(CN3CCC4(C=Cc5ccccc54)CC3)ccc21", 4),
    ("CCn1c2ccccc2c2cc(CCN3CCC4(C=Cc5ccccc54)CC3)ccc21", 10000),
    ("CCn1c2ccccc2c2cc(CN3CCC4(CC3)c3ccccc3[C@H](O)[C@@H]4O)ccc21 (racemic)", 250),
]

Query: // IC50 lookup, key: CC(=O)N[C@@H]1CC2(CCN(Cc3ccc4[nH]c5ccc(C(F)(F)F)cc5c4c3)CC2)c2ccccc21
Reply: 678

---

# MEASURED ON: Melanin-concentrating hormone receptor 2 (Homo sapiens, UniProt Q969V1)
# ASSAY TEXT: Antagonist activity at human MCHR2 receptor expressed in CHO cells assessed as inhibition of MCH-stimulated Ca2+ flux preincubated for 10 mins prior to MCH-stimulation by FLIPR assay
Measured pIC50, listed per entry for reference.
As a rule, pIC50 stands for the negative log10 of the concentration, concentration in M.

Below, each entry is followed by its recorded pIC50 result.
# MOLECULE, READOUT NAME, EXPERIMENTAL VALUE
records = [
    ("CCn1c2ccccc2c2cc(CN3CCC4(CC3)CC(NC(C)=O)c3ccccc34)ccc21 (racemic)", "pIC50", 10.00),
    ("C1=CC2(CCN(Cc3ccc4[nH]c5ccccc5c4c3)CC2)c2ccccc21", "pIC50", 7.00),
]

With those in mind, consider the next molecule.
Query: // pIC50 lookup, key: CCn1c2ccccc2c2cc(CN3CCC4(C=Cc5ccccc54)CC3)ccc21
Reply: 6.00

---

# MEASURED ON: Melanin-concentrating hormone receptor 2 (Homo sapiens, UniProt Q969V1)
# ASSAY TEXT: Antagonist activity at human MCHR2 receptor expressed in CHO cells assessed as inhibition of MCH-stimulated Ca2+ flux preincubated for 10 mins prior to MCH-stimulation by FLIPR assay
READOUT NAME: pIC50
As a rule, pIC50 stands for the negative log10 of the concentration, concentration in M.

Below, each entry is followed by its recorded pIC50 result.
# COMPOUND STRING, pIC50
measured = [
    ("CCn1c2ccccc2c2cc(CCCN3CCC4(C=Cc5ccccc54)CC3)ccc21", 4.82),
    ("CC(=O)N[C@@H]1CC2(CCN(Cc3ccc4[nH]c5ccccc5c4c3)CC2)c2ccccc21", 10.00),
]

With those in mind, consider the next molecule.
Query: // pIC50 lookup, key: O[C@@H]1Cc2ccccc2C12CCN(Cc1ccc3[nH]c4ccccc4c3c1)CC2
Reply: 8.00
